Below: a set of entries, each annotated with reported log10 MICantibiotic.
test system: E. Coli K-12; experiment: Susceptibility test: individual MIC and check point FIC; format: cell-based; settings: antibiotic alone; E. Coli K-12; unit assumed
property: log10 MICantibiotic (log10 of the value in µg/mL)

1. Cc1cc(NS(=O)(=O)c2ccc(N)cc2)no1
2.71
2. CO[C@H]1/C=C/O[C@@]2(C)Oc3c(C)c(O)c4c(O)c(c(/C=N/N5CCN(C)CC5)c(O)c4c3C2=O)NC(=O)/C(C)=C\C=C\[C@H](C)[C@H](O)[C@@H](C)[C@@H](O)[C@@H](C)[C@H](OC(C)=O)[C@@H]1C
1.51
3. CC1(C)S[C@@H]2[C@H](NC(=O)[C@H](N)c3ccccc3)C(=O)N2[C@H]1C(=O)O
0.60
4. O=C(N[C@H](CO)[C@H](O)c1ccc([N+](=O)[O-])cc1)C(Cl)Cl
1.20
5. O=C(O)c1cn(C2CC2)c2cc(N3CCNCC3)c(F)cc2c1=O
-0.90
